# System: Human Rhinovirus 14 (HRV14)
# test method notes: H1-HeLa HRV-CTG 384-well assay, HRV14, Example X
# Assay type: cell-based
# run parameters: Rhinovirus B, 96 h; H1-HeLa cells, HRV14 MOI 1.0, 4 days, Celltiter-Glo; read-out: EC50 H1-HeLa_HRV 14_HRV-CTG 384-well Assay (per Ex. X)
# strict inequality: EC50 < 20 µM yields 1, everything else yields -1

Some solved entries appear below for comparison.
{"smiles record": "CC(C)(C)CCOC(=O)OC[C@@]1(C#N)O[C@@H](c2ccc3c(N)ncnn23)[C@H](O)[C@@H]1O", "study target": "Human Rhinovirus 14 (HRV14)", "label value": 1}
{"smiles record": "CCCOCCOC(=O)OC[C@@]1(C#N)O[C@@H](c2ccc3c(N)ncnn23)[C@H](O)[C@@H]1O", "study target": "Human Rhinovirus 14 (HRV14)", "label value": 1}
{"smiles record": "C[C@H]1CC[C@H](OC(=O)OC[C@@]2(C#N)O[C@@H](c3ccc4c(N)ncnn34)[C@H](O)[C@@H]2O)CC1", "study target": "Human Rhinovirus 14 (HRV14)", "label value": 1}
{"smiles record": "N#C[C@]1(COC(=O)OCc2ccccc2)O[C@@H](c2ccc3c(N)ncnn23)[C@H](O)[C@@H]1O", "study target": "Human Rhinovirus 14 (HRV14)", "label value": 1}
{"smiles record": "N#C[C@]1(COC(=O)OC2CC3(CCC3)C2)O[C@@H](c2ccc3c(N)ncnn23)[C@H](O)[C@@H]1O", "study target": "Human Rhinovirus 14 (HRV14)", "label value": 1}
{"smiles record": "CCC(CC)OC(=O)OC[C@@]1(C#N)O[C@@H](c2ccc3c(N)ncnn23)[C@H](O)[C@@H]1O", "study target": "Human Rhinovirus 14 (HRV14)", "label value": -1}
{"smiles record": "CC(C)(C)COC(=O)OC[C@@]1(C#N)O[C@@H](c2ccc3c(N)ncnn23)[C@H](O)[C@@H]1O", "study target": "Human Rhinovirus 14 (HRV14)", "label value": 1}
{"smiles record": "N#C[C@]1(COC(=O)OC2CC2)O[C@@H](c2ccc3c(N)ncnn23)[C@H](O)[C@@H]1O", "study target": "Human Rhinovirus 14 (HRV14)", "label value": 1}

Lookup: Is it true that EC50 reported for N#C[C@]1(COC(=O)O[C@@H]2C[C@@H]3C[C@@H]3C2)O[C@@H](c2ccc3c(N)ncnn23)[C@H](O)[C@@H]1O is less than 20 µM?
Found: 1

Lookup: In plain terms, does CC[C@@H](C)OC(=O)OC[C@@]1(C#N)O[C@@H](c2ccc3c(N)ncnn23)[C@H](O)[C@@H]1O come in under 20 µM for EC50?
Found: -1

Lookup: Lab note: confirm whether the reported EC50 for this compound is below 20 µM, equality not counting. compound: N#C[C@]1(COC(=O)OC2CCCC2)O[C@@H](c2ccc3c(N)ncnn23)[C@H](O)[C@@H]1O
Found: 1

Lookup: # TODO verify EC50 < 20 µM strictly for this compound: N#C[C@]1(COC(=O)O[C@@H]2CCOC2)O[C@@H](c2ccc3c(N)ncnn23)[C@H](O)[C@@H]1O
Found: 1

Lookup: Hello, is EC50 of the following compound strictly smaller than 20 µM? N#C[C@]1(COC(=O)OC2CCCCC2)O[C@@H](c2ccc3c(N)ncnn23)[C@H](O)[C@@H]1O
Found: -1

Lookup: Please check: EC50 for CC(C)COC(=O)OC[C@@]1(C#N)O[C@@H](c2ccc3c(N)ncnn23)[C@@H]2OC(=O)O[C@@H]21 , strictly under 20 µM or not?
Found: 1

Lookup: Would you kindly verify if EC50 of COC(=O)OC[C@@]1(C#N)O[C@@H](c2ccc3c(N)ncnn23)[C@H](O)[C@@H]1O is strictly less than 20 µM?
Found: 1

Lookup: Strictly below 20 µM in EC50? CCCCCCOC(=O)OC[C@@]1(C#N)O[C@@H](c2ccc3c(N)ncnn23)[C@H](O)[C@@H]1O
Found: 1

Lookup: is_below(EC50, 20 µM) for N#C[C@]1(COC(=O)OC2CCOCC2)O[C@@H](c2ccc3c(N)ncnn23)[C@H](O)[C@@H]1O ?
Found: -1

Lookup: Please check: EC50 for CC(C)CCOC(=O)OC[C@@]1(C#N)O[C@@H](c2ccc3c(N)ncnn23)[C@H](O)[C@@H]1O , strictly under 20 µM or not?
Found: 1

Lookup: Strictly below 20 µM: is that where EC50 of CC(C)COC(=O)OC[C@@]1(C#N)O[C@@H](c2ccc3c(N)ncnn23)[C@H](O)[C@@H]1O sits?
Found: 1

Lookup: Below 20 µM on EC50? Entry COC[C@@H](C)OC(=O)OC[C@@]1(C#N)O[C@@H](c2ccc3c(N)ncnn23)[C@H](O)[C@@H]1O
Found: -1

Lookup: Item CC[C@H](C)COC(=O)OC[C@@]1(C#N)O[C@@H](c2ccc3c(N)ncnn23)[C@H](O)[C@@H]1O : EC50 beneath 20 µM, strictly?
Found: 1

Reference source for all entries: patent US20230382940A1
